test system: LNCaP xenografts; experiment: Biodistribution in LNCaP xenografts; assay type: in vivo, mice; settings: 1 h after injection
observationType: Biodistribution, Muscles (%IA/g)
Give bare numbers, in %IA/g.

[[record]]
compound = "O=C([O-])CN1CCN(CC(=O)O)CCN(CC(=O)[O-])CCN(C(CCC(=O)N[C@H](Cc2ccc(O)c(I)c2)C(=O)N[C@H](Cc2ccccc2)C(=O)N[C@H](CCCCNC(=O)CCCCCCC(=O)NCCCC[C@H](NC(=O)N[C@@H](CCC(=O)O)C(=O)O)C(=O)O)C(=O)O)C(=O)O)CC1.[61Cu+2] (stereo partly drawn) [[^61Cu]Cu-DOTAGA-PSMA-I&T, DOTAGA-(l-y)fk(sub-KuE)]"
observationtype = "Biodistribution, Muscles"
val = 1.00


Could you tell me Biodistribution, Muscles for each of these compounds? They are listed below.
1. O=C([O-])CN1CCN(CC(=O)[O-])CCN(C(CCC(=O)N[C@H](Cc2ccc(O)c(I)c2)C(=O)N[C@H](Cc2ccccc2)C(=O)N[C@H](CCCCNC(=O)CCCCCCC(=O)NCCCC[C@H](NC(=O)N[C@@H](CCC(=O)O)C(=O)O)C(=O)O)C(=O)O)C(=O)O)CC1.[61Cu+2] (stereo partly drawn) [[^61Cu]Cu-NODAGA-PSMA-I&T, NODAGA-(l-y)fk(sub-KuE)]
2. O=C([O-])CN(CCN(CC(=O)[O-])Cc1cc(CCC(=O)NCCCCCC(=O)NCCCC[C@H](NC(=O)N[C@@H](CCC(=O)O)C(=O)O)C(=O)O)ccc1[O-])Cc1cc(CCC(=O)O)ccc1[O-].[68Ga+3].[OH3+] [[^68Ga]Ga-PSMA-11, reference compound]

1.12
0.90

The reported Biodistribution, Muscles of the compound O=C(O)CC[C@H](NC(=O)N[C@@H](CCCCNC(=O)[C@H](Cc1ccc2ccccc2c1)NC(=O)c1ccc(CNC(=O)[C@H](CCC(=O)O)NC(=O)[C@H](CCC(=O)O)NC(=O)c2ccc([18F])nc2)cc1)C(=O)O)C(=O)O [[^18F]PSMA-1007, reference compound] was 0.53
